Protocol notes: Example 2 multiple rising dose inhaled delta-9-THC study: plasma pharmacokinetics
Stated conditions: human, plasma, inhaled, 3.6 mg, AUC(0-8), Arithmetic Mean (SD), 3.6 mg m.d., Day 19, Group II
Readout label: AUC(0-t)

Which AUC(0-t) is reported for this molecule? CCCCCc1cc(O)c2c(c1)OC(C)(C)[C@@H]1CCC(C)=C[C@@H]21 [delta-9-THC, delta-9-tetrahydrocannabinol]
15.8 ng·h/mL

----------
Protocol notes: Example 2 multiple rising dose inhaled delta-9-THC study: plasma pharmacokinetics
Stated conditions: human, plasma, inhaled, 3.6 mg, AUC(0-8), Arithmetic Mean (SD), 3.6 mg s.d., Day 1
Readout label: AUC(0-t) (ng·h/mL)
One number for each entry, in ng·h/mL.

Query (compound): CCCCCc1cc(O)c2c(c1)OC(C)(C)[C@@H]1CCC(C)=C[C@@H]21 [delta-9-THC, delta-9-tetrahydrocannabinol] ; field requested: AUC(0-t)
14.7

----------
Protocol notes: Example 2 multiple rising dose inhaled delta-9-THC study: plasma pharmacokinetics
Stated conditions: human, plasma, inhaled, 3.6 mg, Cmax, Arithmetic Mean (SD), 3.6 mg s.d., Day 1, plasma
Readout label: Cmax (ng/mL)
Numbers only, in ng/mL.

// returns reported Cmax for input CCCCCc1cc(O)c2c(c1)OC(C)(C)[C@@H]1CCC(C)=C[C@@H]21 [delta-9-THC, delta-9-tetrahydrocannabinol]
44.7

----------
Protocol notes: Example 2 multiple rising dose inhaled delta-9-THC study: plasma pharmacokinetics
Stated conditions: human, plasma, inhaled, 3.6 mg, tmax, median (range), 3.6 mg s.d., Day 1
Readout label: Tmax (min)
Give bare numbers, in min.

Find the recorded Tmax belonging to CCCCCc1cc(O)c2c(c1)OC(C)(C)[C@@H]1CCC(C)=C[C@@H]21 [delta-9-THC, delta-9-tetrahydrocannabinol] and report it.
4.8

----------
Protocol notes: Example 2 multiple rising dose inhaled delta-9-THC study: plasma pharmacokinetics
Stated conditions: human, plasma, inhaled, 3.6 mg, tmax, median (range), 3.6 mg m.d., Day 19, Group II
Readout label: Tmax

// Tmax lookup, key: CCCCCc1cc(O)c2c(c1)OC(C)(C)[C@@H]1CCC(C)=C[C@@H]21 [delta-9-THC, delta-9-tetrahydrocannabinol]
1.8 min

----------
Protocol notes: Example 2 multiple rising dose inhaled delta-9-THC study: plasma pharmacokinetics
Stated conditions: human, plasma, inhaled, 1.2 mg, AUC(0-inf), Arithmetic Mean (SD), 1.2 mg s.d., Day 1
Readout label: AUC(0-inf)
Quick note: number first, unit second.

Reported AUC(0-inf) for CCCCCc1cc(O)c2c(c1)OC(C)(C)[C@@H]1CCC(C)=C[C@@H]21 [delta-9-THC, delta-9-tetrahydrocannabinol] : what is it?
7.14 ng·h/mL

----------
Protocol notes: Example 2 multiple rising dose inhaled delta-9-THC study: plasma pharmacokinetics
Stated conditions: human, plasma, inhaled, 1.2 mg, terminal elimination half-life, multiple dosing
Readout label: half-life (h)
Answers are plain numbers, in h.

Please give the measured half-life for this compound: CCCCCc1cc(O)c2c(c1)OC(C)(C)[C@@H]1CCC(C)=C[C@@H]21 [delta-9-THC, delta-9-tetrahydrocannabinol]
24

----------
Protocol notes: Example 2 multiple rising dose inhaled delta-9-THC study: plasma pharmacokinetics
Stated conditions: human, plasma, inhaled, 3.6 mg, Cmax, Geometric Mean (Range), 3.6 mg m.d. (three times daily), Day 19, Group II
Readout label: Cmax (ng/mL)
One number for each entry, in ng/mL.

Item under review: CCCCCc1cc(O)c2c(c1)OC(C)(C)[C@@H]1CCC(C)=C[C@@H]21 [delta-9-THC, delta-9-tetrahydrocannabinol] . Reported Cmax?
37.4

Ref: patent US20070020193A1
